Data provenance is patent US20220306744A1.

target: T1, recombinant human PD-1 Fc chimera (human, UniProt Q15116 25-167); test: SPR Biacore T200, single cycle kinetics, human PD-1-hu Fc amine coupled to CM5, 1:1 model
T1 construct: Bought protein (R&D 1086-PD in the HTRF assay); also called human PD-1-hu Fc; huPD-1Fc; not shown: human Fc
T1 sequence (Q15116 25-167 limits assumed, stated change not applied): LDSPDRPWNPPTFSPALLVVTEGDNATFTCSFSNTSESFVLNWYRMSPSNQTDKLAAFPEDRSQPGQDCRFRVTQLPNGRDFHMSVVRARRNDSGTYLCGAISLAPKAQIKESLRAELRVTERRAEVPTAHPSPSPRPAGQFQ
assay readout: kon (M⁻¹ s⁻¹)

binder: 1.92b-4GS-1.62a (other, Biparatopic VH-linker-VH; also called 1.92-4GS-1.62a; 1.92b-4gs-2.12a) EVQLVESGGGLVKPGGSLRLSCAASGFTFSDESMTWMRQAPGKGLEWVSYISSGGGVKFYADSVKGRFTISRDNAKNSLYLQMNSLRAEDTAVYYCAREAPLRLGESPHDAFDISGQGTMVTVSSGGGGSGGGGSGGGGSGGGGSEVQLVESGGGVVRPGGSLRLSCAASGFTFDDYAMSWVRQAPGKGLEWVSGITWNAGSTGYADSVKGRFTISRDNAKNSLYLQMNSLRAEDTALYYCVRDKYSYAWSYDDFDIWGQGTMVTVSS
assay readout: kon
reported value: 440000
